# target.under.test: human ether-à-go-go-related gene (hERG) potassium channel (human, UniProt Q12809);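 note: peak tail current of the secondary pulse compared with the same well before compound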
# Sequence (Q12809 whole entry, looked up): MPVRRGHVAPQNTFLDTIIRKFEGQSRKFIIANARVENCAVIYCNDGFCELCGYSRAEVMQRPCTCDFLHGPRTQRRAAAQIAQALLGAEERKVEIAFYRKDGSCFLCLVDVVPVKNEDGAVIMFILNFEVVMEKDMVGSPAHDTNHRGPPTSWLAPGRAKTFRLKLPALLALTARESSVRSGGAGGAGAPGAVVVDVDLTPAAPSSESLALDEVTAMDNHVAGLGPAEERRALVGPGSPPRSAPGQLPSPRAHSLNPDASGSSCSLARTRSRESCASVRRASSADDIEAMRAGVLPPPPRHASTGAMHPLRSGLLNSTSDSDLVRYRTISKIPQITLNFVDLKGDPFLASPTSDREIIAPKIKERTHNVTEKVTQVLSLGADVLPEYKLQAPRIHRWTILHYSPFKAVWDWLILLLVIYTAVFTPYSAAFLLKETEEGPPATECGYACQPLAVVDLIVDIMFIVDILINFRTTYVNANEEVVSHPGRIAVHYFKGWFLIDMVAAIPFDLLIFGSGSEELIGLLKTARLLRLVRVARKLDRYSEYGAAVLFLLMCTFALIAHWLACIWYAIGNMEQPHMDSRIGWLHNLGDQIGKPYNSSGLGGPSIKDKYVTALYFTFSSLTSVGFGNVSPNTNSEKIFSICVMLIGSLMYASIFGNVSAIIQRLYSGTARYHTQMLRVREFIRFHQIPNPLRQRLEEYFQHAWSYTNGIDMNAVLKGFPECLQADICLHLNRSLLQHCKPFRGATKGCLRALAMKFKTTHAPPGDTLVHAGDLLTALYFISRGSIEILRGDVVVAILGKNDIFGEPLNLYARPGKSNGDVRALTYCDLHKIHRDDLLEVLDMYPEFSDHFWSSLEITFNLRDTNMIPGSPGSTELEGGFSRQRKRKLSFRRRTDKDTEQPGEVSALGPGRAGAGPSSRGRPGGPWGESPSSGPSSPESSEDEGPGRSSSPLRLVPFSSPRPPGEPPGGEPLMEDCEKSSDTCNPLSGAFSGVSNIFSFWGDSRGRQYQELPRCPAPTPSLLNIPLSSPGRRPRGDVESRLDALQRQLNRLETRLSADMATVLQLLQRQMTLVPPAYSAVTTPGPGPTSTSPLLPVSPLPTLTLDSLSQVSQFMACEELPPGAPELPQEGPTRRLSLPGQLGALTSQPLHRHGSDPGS
# test.summary: primary screen, population patch clamp on CHO cells stably expressing hERG; higher = less effect of the substance
The whole screen tested about 310,000 compounds, of which about 14,000 (4.5%) showed an effect of 50% or more. Effects have a minus sign here. This is one part of a sample in which strong results are shown more often than they occur.
value.kind: hERG current change (%, negative = inhibition) at 10uM (%)

| smiles.record | endpoint.value |
| --- | --- |
| O=C(Cn1ncc2c(=O)oc3ccccc3c21)N1CCN(C(=O)c2ccco2)CC1 | -73.6 |
| O=C(c1cc2c(s1)-c1ccccc1OC2)N1CCCC1 | -4.69 |
| O=C(c1cc2c(=O)oc3ccccc3c2s1)N1CCOCC1 | -0.51 |
| O=C(c1ccco1)N1CCN(C(=O)c2cc3c(=O)oc4ccccc4c3s2)CC1 | -62.9 |
| O=C(Cn1ncc2c(=O)oc3ccccc3c21)NCCC1=CCCCC1 | -3.92 |

---

# target.under.test: human ether-à-go-go-related gene (hERG) potassium channel (human);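 note: peak tail current of the secondary pulse compared with the same well before compound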
# test.summary: primary screen, population patch clamp on CHO cells stably expressing hERG; higher = less effect of the substance
Among all 310,000 compounds or so, about 14,000 (4.5%) showed an effect of 50% or more. Effects have a minus sign here. Many of the other results were omitted from the sample, so strong results are more common in it than they were.
value.kind: hERG current change (%, negative = inhibition) at 10uM (%)

| compound | target.under.test | endpoint.value |
| --- | --- | --- |
| Cc1onc(-c2ccccc2Cl)c1C(=O)N1CCN(c2ncccn2)CC1 | human ether-à-go-go-related gene (hERG) potassium channel (human) | 2.45 |
| COCCNC(=O)CCC1CCN(Cc2cccc(Oc3ccccc3)c2)CC1 | human ether-à-go-go-related gene (hERG) potassium channel (human) | -55.3 |
| COCCNC(=O)CCC1CCN(Cc2cccc(-c3ccc(C)o3)c2)CC1 | human ether-à-go-go-related gene (hERG) potassium channel (human) | -25.3 |
| CC(=O)O[C@H]1CC[C@H]2[C@@H]3CCc4cc(O)ccc4[C@H]3CC[C@]12C | human ether-à-go-go-related gene (hERG) potassium channel (human) | -5.79 |
| Cn1c(C(=O)NC2CCCCC2)cc2c(=O)n3ccccc3nc21 | human ether-à-go-go-related gene (hERG) potassium channel (human) | 4.32 |
| CC(=O)C1=C(C)Nc2ncnn2C1c1ccc(Cl)cc1Cl (stereo not drawn) | human ether-à-go-go-related gene (hERG) potassium channel (human) | 2.23 |
| CC1CCCCN1C/C=C/c1ccccc1[N+](=O)[O-] (stereo not drawn) | human ether-à-go-go-related gene (hERG) potassium channel (human) | -39 |
| COc1ccc(-c2cc(C(=O)N3CCN(S(=O)(=O)c4ccccc4)CC3)[nH]n2)cc1 | human ether-à-go-go-related gene (hERG) potassium channel (human) | 8.23 |
| CCOC(=O)C1CCN(C/C=C/c2ccccc2[N+](=O)[O-])CC1 | human ether-à-go-go-related gene (hERG) potassium channel (human) | -70.2 |
| CCOC(=O)C1CCN(C/C=C/c2ccccc2OC)CC1 | human ether-à-go-go-related gene (hERG) potassium channel (human) | -20.5 |
| Cc1nc2nc(-c3ccccc3)[nH]n2c(=O)c1C | human ether-à-go-go-related gene (hERG) potassium channel (human) | -3.77 |
| CCOC(=O)c1cnc2c(C(=O)OC)cccc2c1NCc1ccco1 | human ether-à-go-go-related gene (hERG) potassium channel (human) | -70.2 |
| O=[N+]([O-])c1ccccc1/C=C/CN1CCCCC1CO (stereo not drawn) | human ether-à-go-go-related gene (hERG) potassium channel (human) | 5.49 |
| CCOC(=O)c1cnc(SCC(=O)NCc2ccco2)nc1N | human ether-à-go-go-related gene (hERG) potassium channel (human) | -14.5 |
| O=C(NCSc1ccnc(SCNC(=O)c2ccccc2)n1)c1ccccc1 | human ether-à-go-go-related gene (hERG) potassium channel (human) | -28 |
| CCOC(=O)C1CCN(C/C=C/c2ccccc2)CC1 | human ether-à-go-go-related gene (hERG) potassium channel (human) | -28.2 |
| Cc1ccc2nc(NC(=O)c3ccc(-c4nc5ccccc5s4)s3)sc2c1 | human ether-à-go-go-related gene (hERG) potassium channel (human) | 0.614 |
| N=c1c(C(=O)NC2CCCC2)cc2c(=O)n3ccccc3nc2n1C1CCCCC1 | human ether-à-go-go-related gene (hERG) potassium channel (human) | -79 |
| C/C=C(\C)C(=O)NNC(=O)c1sc(-c2ccccc2)nc1C | human ether-à-go-go-related gene (hERG) potassium channel (human) | 16 |
| COc1ccc(S(=O)(=O)N2CCN(C(=O)c3cc(-c4ccc(Br)cc4)n[nH]3)CC2)cc1OC | human ether-à-go-go-related gene (hERG) potassium channel (human) | -13.5 |
| COc1cc(C(=O)N2CCN(C(=O)c3cc(-c4ccccc4)n[nH]3)CC2)cc(OC)c1OC | human ether-à-go-go-related gene (hERG) potassium channel (human) | -77.6 |
| O=C(Nc1cc([N+](=O)[O-])ccc1F)C1CC1 | human ether-à-go-go-related gene (hERG) potassium channel (human) | -4.7 |
| CCNC(=O)c1c(NC(=O)c2cc(-c3cc(C)ccc3O)n[nH]2)sc2c1CCCC2 | human ether-à-go-go-related gene (hERG) potassium channel (human) | 30.5 |
| OC(CNC1CCCCC1)C(F)(F)F (stereo not drawn) | human ether-à-go-go-related gene (hERG) potassium channel (human) | -2.73 |
| COC(CN1CCc2c(C)nc3c(C#N)cnn3c21)OC | human ether-à-go-go-related gene (hERG) potassium channel (human) | 5.84 |
| CN(c1ccccc1)S(=O)(=O)c1cccc(NC(=O)Cc2ccc(Cl)cc2)c1 | human ether-à-go-go-related gene (hERG) potassium channel (human) | 9.43 |
| CCOC(=O)c1cnc2ccccc2c1NCc1ccco1 | human ether-à-go-go-related gene (hERG) potassium channel (human) | -56.9 |
| COc1cc(CNS(=O)(=O)CCl)cc(OC)c1OC | human ether-à-go-go-related gene (hERG) potassium channel (human) | 12.7 |
| CC1(C)C2CCC1(C)C(OC(=O)CCn1ccnc1)C2 (stereo not drawn) | human ether-à-go-go-related gene (hERG) potassium channel (human) | -25.5 |
| Cc1cc(NC(=O)c2cc([N+](=O)[O-])cc([N+](=O)[O-])c2)n(-c2ccccc2)n1 | human ether-à-go-go-related gene (hERG) potassium channel (human) | 7.63 |
| CCOC(=O)c1cccnc1SC(CC)C(=O)NCc1ccco1 (stereo not drawn) | human ether-à-go-go-related gene (hERG) potassium channel (human) | -31.5 |
| Cc1nc2c(C#N)cnn2c2c1CCN2CC1CCCO1 (stereo not drawn) | human ether-à-go-go-related gene (hERG) potassium channel (human) | -51.7 |
| N=c1c(C(=O)NC2CCCC2)cc2c(=O)n3ccccc3nc2n1C1CCCC1 | human ether-à-go-go-related gene (hERG) potassium channel (human) | -82.2 |
| c1cncc(-c2noc(C34CC5CC(CC(C5)C3)C4)n2)c1 | human ether-à-go-go-related gene (hERG) potassium channel (human) | -0.918 |
| O=C(O)CCC(=O)N1CCc2cc(S(=O)(=O)NC3CCCc4ccccc43)ccc21 (stereo not drawn) | human ether-à-go-go-related gene (hERG) potassium channel (human) | -5.02 |
| CCOC(=O)C1CCCN(C/C=C/c2ccccc2[N+](=O)[O-])C1 (stereo not drawn) | human ether-à-go-go-related gene (hERG) potassium channel (human) | -68.2 |
| COc1ccc2[nH]c(=O)c(CN(C(C)=O)c3cccc(C)c3)cc2c1 | human ether-à-go-go-related gene (hERG) potassium channel (human) | -8.64 |
| COc1ccc(OC)c2c1C(=O)c1ccccc1C2=O | human ether-à-go-go-related gene (hERG) potassium channel (human) | -5.81 |
| O=[N+]([O-])c1ccccc1/C=C/CN1CCCCC1 | human ether-à-go-go-related gene (hERG) potassium channel (human) | -6.44 |
| CC(C)COc1ccc(CNC(=S)Nc2ccccc2)cc1Cl | human ether-à-go-go-related gene (hERG) potassium channel (human) | 8.6 |
| Cn1c(O)c(/C=C2\C=NN=C2c2ccccc2)sc1=S | human ether-à-go-go-related gene (hERG) potassium channel (human) | 0.793 |
| Cc1nc2ccccn2c1C(=O)NC1CCCCC1 | human ether-à-go-go-related gene (hERG) potassium channel (human) | 1.83 |

---

Entries and their hERG current change (%, negative = inhibition) at 10uM
# target.under.test: human ether-à-go-go-related gene (hERG) potassium channel (human);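 note: peak tail current of the secondary pulse compared with the same well before compound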
# test.summary: primary screen, population patch clamp on CHO cells stably expressing hERG; higher = less effect of the substance
The whole screen tested about 310,000 compounds, of which about 14,000 (4.5%) showed an effect of 50% or more. Effects have a minus sign here. Shown is part of a subset that was picked to be rich in strong results.
value.kind: hERG current change (%, negative = inhibition) at 10uM (%)

| molecule | unit | endpoint.value |
| --- | --- | --- |
| Cc1ccc(-c2nc(N)sc2C)cc1 | % | -16.9 |
| CCOC(=O)C1(CC2CC2)CCN(Cc2cnc(N(C)C)s2)CC1 | % | -22.1 |
| CN(CC(=O)Nc1ccc2c(c1)OCO2)S(=O)(=O)c1cccs1 | % | -26.9 |
| CCOC(=O)N1CCC(NC(=O)CSCc2nc(-c3ccccc3Cl)oc2C)CC1 | % | -19.5 |
| Cc1sc(NC(=O)C2=COCCO2)nc1-c1ccc(Cl)cc1 | % | 13 |
| COc1ccc(CCn2c(O)c(C=Nc3ccc(NC(C)=O)cc3)c(=O)[nH]c2=O)cc1OC | % | 27.6 |
| COc1ccc(/C=N/n2c(C3CCCCC3)n[nH]c2=S)c(OC)c1 | % | 23.6 |
| COc1ccc(CC(=O)Nc2ccc(-c3noc(COc4ccccc4C)n3)cc2)cc1 | % | 2.1 |
| CN1CCN(CCOc2cccc(Cl)c2)CC1.Cl | % | 1.19 |
| COc1ccc(OCCN2CCN(C(=O)c3ccc(OC(F)F)c(OC)c3)CC2)cc1 | % | -72.6 |
| O=C(NCCN1CCOCC1)c1ccccc1[N+](=O)[O-] | % | 1.06 |
| O/N=C1/C2C3CC4C5C3C1C5C1(OCCO1)C42 (stereo not drawn) | % | 4.44 |
| CCOC(=O)C1(CCCc2ccccc2)CCN(Cc2cnc(C)s2)CC1 | % | -73.1 |
| CC(=O)N(CN1C(=O)c2ccccc2C1=O)c1cccc(C)c1 | % | 4.43 |
| Cn1cc([N+](=O)[O-])c(C(=O)N/N=C/c2cc3c(cc2Br)OCO3)n1 | % | 3.63 |
| CCOC(=O)C1(CCOC)CCN(Cc2cc3ccccc3s2)CC1 | % | -22.5 |
| CCOC(=O)C1(CCOc2ccccc2)CCN(Cc2ccc(C)s2)CC1 | % | -89.8 |
| COc1ccc(S(=O)(=O)NCc2ccccn2)c(C)c1C | % | 0.26 |
| Clc1cccc(OCCN2CCN(CCOc3cccc(Cl)c3)CC2)c1 | % | -70.8 |
| CCOC(=O)C1(CCc2ccccc2)CCN(Cc2cnc(N(C)C)s2)CC1 | % | -83 |
| CCOc1cc(C(=O)N2CCc3cc(OC)c(OC)cc3C2)ccc1OC(F)F | % | -35.7 |

Where these numbers come from: paper PMC4336329
